This collection of values is drawn from patent US20220267356A1.

Test: Bioavailability / pharmacokinetic study in male rats (IV and PO)
Type: in vivo
Conditions: rat, pro-drug in plasma when dosed as pro-drug, PO 5 mg/kg
quantity_kind: Tmax (min)

Solved cases below.
[
  {
    "molecule": "C[C@H](N)C(=O)NC[C@H](CCCB(O)O)[C@H](N)C(=O)O [Example 20]",
    "value_measured": 45
  },
  {
    "molecule": "CC(C)[C@H](N)C(=O)NC[C@H](CCCB(O)O)[C@H](N)C(=O)O [Example 19]",
    "value_measured": 30
  },
  {
    "molecule": "CC[C@H](C)[C@H](N)C(=O)NC[C@H](CCCB(O)O)[C@H](N)C(=O)O [Example 22]",
    "value_measured": 60
  },
  {
    "molecule": "C[C@H](N)C(=O)N[C@H](C(=O)O)[C@H](CN)CCCB(O)O [Example 25]",
    "value_measured": 15
  },
  {
    "molecule": "NCC(=O)NC[C@H](CCCB(O)O)[C@H](N)C(=O)O [Example 24]",
    "value_measured": 105
  }
]

1 = CC[C@H](N)C(=O)NC[C@H](CCCB(O)O)[C@H](N)C(=O)O [Example 21]
2 = C[C@H](N)C(=O)N[C@H](C(=O)O)[C@@H](CN)CCCB(O)O [Example 14]
Higher Tmax: 1 or 2 ? Your answer should be the label of the entry you select.
1

* * *

Test: Bioavailability / pharmacokinetic study in male rats (IV and PO)
Format: in vivo
Settings: rat, pro-drug in plasma when dosed as pro-drug, IV 2 mg/kg
quantity_kind: clearance (mL/min/kg)

Below, each entry is followed by its recorded clearance result.
[
  {
    "record_smiles": "CC(C)[C@H](N)C(=O)NC[C@H](CCCB(O)O)[C@H](N)C(=O)O",
    "clearance / mL/min/kg": 16.4
  },
  {
    "record_smiles": "CC(C)[C@H](N)C(=O)N[C@H](C(=O)O)[C@H](CN)CCCB(O)O",
    "clearance / mL/min/kg": 26.6
  },
  {
    "record_smiles": "C[C@H](N)C(=O)NC[C@H](CCCB(O)O)[C@H](N)C(=O)O",
    "clearance / mL/min/kg": 12.5
  },
  {
    "record_smiles": "CC[C@H](C)[C@H](N)C(=O)NC[C@H](CCCB(O)O)[C@H](N)C(=O)O",
    "clearance / mL/min/kg": 13.1
  }
]

a = C[C@H](N)C(=O)N[C@H](C(=O)O)[C@@H](CN)CCCB(O)O
b = NCC(=O)NC[C@H](CCCB(O)O)[C@H](N)C(=O)O
c = C[C@H](N)C(=O)N[C@H](C(=O)O)[C@H](CN)CCCB(O)O
d = CC[C@H](N)C(=O)NC[C@H](CCCB(O)O)[C@H](N)C(=O)O
Order the 4 molecules from highest to lowest clearance. # list labels per requested ordering
a, c, d, b
(a: 46.1 mL/min/kg, c: 28.3 mL/min/kg, d: 14.1 mL/min/kg, b: 8.4 mL/min/kg)

* * *

Molecular target: Human Arginase 2 (Homo sapiens)
Construct: made in house; host or cells: E. coli
Sequence (P78540 23-354): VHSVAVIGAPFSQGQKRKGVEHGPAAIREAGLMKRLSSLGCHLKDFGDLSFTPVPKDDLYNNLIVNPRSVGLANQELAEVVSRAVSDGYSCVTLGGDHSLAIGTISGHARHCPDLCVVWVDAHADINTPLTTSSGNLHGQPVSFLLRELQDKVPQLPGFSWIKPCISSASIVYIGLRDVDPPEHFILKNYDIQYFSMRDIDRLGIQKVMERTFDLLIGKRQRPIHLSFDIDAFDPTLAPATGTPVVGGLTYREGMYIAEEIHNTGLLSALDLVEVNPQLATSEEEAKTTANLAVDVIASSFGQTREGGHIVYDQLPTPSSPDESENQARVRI
Test: Human Arginase 2 enzyme inhibition (thioarginine/DTNB absorbance at 412 nm)
Type: biochemical
Settings: recombinant enzyme 5 nM, 60 min, room temperature
pIC50: −log10 of the molar value.
quantity_kind: pIC50

a = CC(C)[C@H](N)C(=O)N[C@H](C(=O)O)[C@@H](CN)CCCB(O)O [Example 13]
b = NC[C@H](CCCB(O)O)[C@H](N)C(=O)O [Example 18]
c = CC(=O)NC[C@@H](CCCB(O)O)[C@H](N)C(=O)O [Example 11]
Consider the compounds listed above. Rank them by pIC50 in ascending numerical order. Output spec: a listing of the labels in the requested order.
a, c, b

1 = NCC[C@@H](CCCB(O)O)[C@H](N)C(=O)O [Example 15]
2 = NC(=O)[C@@H](CCCB(O)O)[C@H](N)C(=O)O [Example 16]
Between item 1 and item 2 , which reported pIC50 is smaller? Write the label of whichever entry you select.
2

P = C[C@H](N)C(=O)N[C@H](C(=O)O)[C@@H](CN)CCCB(O)O [Example 14]
Q = CNC[C@@H](CCCB(O)O)[C@H](N)C(=O)O [Example 4]
R = C[C@H](N)C(=O)N[C@H](C(=O)O)[C@H](CN)CCCB(O)O [Example 25]
S = NC[C@@H](CCCB(O)O)[C@H](N)C(=O)O [Example 1]
T = CC(C)[C@H](N)C(=O)N[C@H](C(=O)O)[C@H](CN)CCCB(O)O [Example 26]
rank_up(items): orders items by reported pIC50 in ascending numerical order. Use the labels to give the ranking in the order requested.
P, T, Q, R, S

A = C[C@H](N)C(=O)NC[C@H](CCCB(O)O)[C@H](N)C(=O)O [Example 20]
B = CC[C@H](N)C(=O)NC[C@H](CCCB(O)O)[C@H](N)C(=O)O [Example 21]
C = CN[C@H](C(=O)O)[C@@H](CN)CCCB(O)O [Example 12]
Write the entries in order, lowest recorded pIC50 first. Give me the labels in the order the question wants.
C, A, B
